ASSAYED SYSTEM: hCD38 Enzyme (Homo sapiens)
Sequence (P28907 43-300 limits assumed): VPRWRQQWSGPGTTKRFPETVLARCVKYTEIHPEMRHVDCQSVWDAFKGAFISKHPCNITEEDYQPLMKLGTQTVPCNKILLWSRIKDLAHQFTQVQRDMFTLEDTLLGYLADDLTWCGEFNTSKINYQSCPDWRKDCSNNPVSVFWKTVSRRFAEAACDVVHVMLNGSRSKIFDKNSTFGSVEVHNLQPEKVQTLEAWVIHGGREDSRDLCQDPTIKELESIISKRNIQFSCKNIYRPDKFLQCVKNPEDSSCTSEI
ASSAY PROTOCOL: CD38 hydrolase enzymatic assay
CONDITION NOTES: rhCD38, ε-NAD substrate, 25° C., point reading time 20 mins; read-out: hCD38 Enzyme inhibition IC50
Protocol: Also, a blank sample was prepared with 50 μl of sucrose buffer and no test compounds. The dynamic reading was performed at 25° C. with excitation light of 300 nm and emission light of 410 nm on the enzyme marker by contacting the above-prepared rhCD38 enzyme working fluid and the above-prepared solutions of the test compounds disclosed herein or the solution of the control. The readings were recorded for a total of 1 hour, and the data were analyzed with the point reading time of 20 mins. […]
Please use satisfied for IC50 under 30 nM and not satisfied for everything else, ties included.

Example entries begin here.
molecule="O=C(NC1CCCCC1)c1cc(N2CCCCC2)cc(-n2ccnc2)n1 [compound 130]" label="not satisfied"
molecule="CO[C@H]1CC[C@H](NC(=O)c2cc(-c3ccnc(C(F)(F)F)c3)nc(-n3ccnc3)n2)CC1 [Compound 184]" label=satisfied
molecule="O=C(Nc1cccnc1)c1ccnc(-n2ccnc2)n1 [compound 66]" label=satisfied

Consider the molecule O=C(Nc1cc(F)ccc1F)c1cc(N2CCCCC2)nc(-n2ccnc2)n1 [compound 135] . Is its IC50 strictly less than 30 nM?
not satisfied

Consider the molecule O=C(Nc1cccc(F)c1)c1nc(-n2ccnc2)ccc1C(F)(F)F [compound 159] . Is its IC50 strictly less than 30 nM?
not satisfied

Consider the molecule CC(C)(O)c1ccc(NC(=O)c2cc(C(F)(F)F)nc(-n3ccnc3)n2)cc1F [Compound 180] . Is its IC50 strictly less than 30 nM?
satisfied

Consider the molecule CO[C@H]1CC[C@H](NC(=O)c2cccc(-c3cncs3)n2)CC1 [compound 12] . Is its IC50 strictly less than 30 nM?
not satisfied

Consider the molecule CO[C@H]1CC[C@H](NC(=O)c2cc(-c3ccncc3)nc(-n3ccnc3)n2)CC1 [compound 183] . Is its IC50 strictly less than 30 nM?
satisfied

Consider the molecule O=C(NCC1CCCCC1)c1cncc(-n2ccnc2)n1 [compound 37] . Is its IC50 strictly less than 30 nM?
not satisfied

Consider the molecule CO[C@H]1CC[C@H](NC(=O)c2nc(-n3ccnc3)ccc2O)CC1 [compound 71] . Is its IC50 strictly less than 30 nM?
not satisfied

Consider the molecule O=C(Nc1ccccc1)c1cncc(-n2ccnc2)n1 [compound 35] . Is its IC50 strictly less than 30 nM?
satisfied

Consider the molecule CO[C@H]1CC[C@H](NC(=O)c2nc(-n3ccnc3)ncc2C(F)(F)F)CC1 [compound 161] . Is its IC50 strictly less than 30 nM?
not satisfied
